- TARGET ENTITY: Protein-tyrosine kinase 2-beta (Homo sapiens)
- Sequence (Q14289 whole entry): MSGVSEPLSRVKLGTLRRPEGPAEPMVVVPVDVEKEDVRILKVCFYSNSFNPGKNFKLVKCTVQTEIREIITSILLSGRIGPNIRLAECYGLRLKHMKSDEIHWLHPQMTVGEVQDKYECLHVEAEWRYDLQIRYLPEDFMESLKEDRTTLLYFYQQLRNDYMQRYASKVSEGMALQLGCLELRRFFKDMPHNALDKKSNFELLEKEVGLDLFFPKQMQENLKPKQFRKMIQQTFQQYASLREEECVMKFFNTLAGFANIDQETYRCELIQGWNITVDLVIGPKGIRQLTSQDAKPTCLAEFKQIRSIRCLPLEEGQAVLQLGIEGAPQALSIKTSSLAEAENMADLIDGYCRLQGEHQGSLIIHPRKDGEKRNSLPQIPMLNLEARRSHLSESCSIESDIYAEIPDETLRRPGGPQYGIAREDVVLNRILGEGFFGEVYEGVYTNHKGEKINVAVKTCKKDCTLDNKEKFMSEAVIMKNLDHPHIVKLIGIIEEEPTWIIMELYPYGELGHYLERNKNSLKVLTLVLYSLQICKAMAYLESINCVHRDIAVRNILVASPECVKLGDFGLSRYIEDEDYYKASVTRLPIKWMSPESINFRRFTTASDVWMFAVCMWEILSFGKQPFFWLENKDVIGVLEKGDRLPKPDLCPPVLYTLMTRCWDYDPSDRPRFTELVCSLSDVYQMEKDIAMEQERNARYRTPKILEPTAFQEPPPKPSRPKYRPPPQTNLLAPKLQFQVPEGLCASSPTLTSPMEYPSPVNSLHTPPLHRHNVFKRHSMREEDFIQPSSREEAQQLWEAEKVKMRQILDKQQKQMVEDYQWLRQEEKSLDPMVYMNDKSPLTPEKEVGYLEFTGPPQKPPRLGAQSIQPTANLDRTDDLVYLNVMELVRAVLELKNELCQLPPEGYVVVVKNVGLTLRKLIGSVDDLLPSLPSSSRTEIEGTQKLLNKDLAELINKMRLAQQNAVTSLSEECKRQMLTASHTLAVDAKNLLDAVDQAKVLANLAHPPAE
OBSERVABLE: IC50

Answer with the recorded IC50 for the compound listed here: CN1c2ccc(NCc3ccc(C(C)(C)C)cc3)cc2-c2c(cnn2C)S1(=O)=O
> 10 µM
